Below, each entry is listed alongside its reported AC50.
targetUnderTest: Alpha-2A adrenergic receptor (Homo sapiens); note: assay procedure not described here
Sequence (P08913 whole entry): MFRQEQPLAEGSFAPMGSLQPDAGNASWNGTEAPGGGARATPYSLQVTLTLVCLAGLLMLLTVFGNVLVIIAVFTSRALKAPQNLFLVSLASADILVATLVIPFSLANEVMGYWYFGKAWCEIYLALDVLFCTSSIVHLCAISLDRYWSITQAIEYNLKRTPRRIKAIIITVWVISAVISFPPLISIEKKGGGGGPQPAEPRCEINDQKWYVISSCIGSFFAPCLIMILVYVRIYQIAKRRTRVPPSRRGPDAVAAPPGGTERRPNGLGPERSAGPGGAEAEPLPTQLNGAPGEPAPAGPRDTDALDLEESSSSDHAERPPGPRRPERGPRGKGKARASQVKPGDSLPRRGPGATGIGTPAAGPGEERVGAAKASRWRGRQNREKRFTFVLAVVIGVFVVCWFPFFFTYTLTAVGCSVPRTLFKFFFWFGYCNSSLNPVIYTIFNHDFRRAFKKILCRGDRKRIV

[
  {
    "compound": "Nc1ccc(S(=O)(=O)Nc2nccs2)cc1",
    "AC50": "> 10 µM"
  },
  {
    "compound": "CC(C)Cc1ccc(C(C)C(=O)O)cc1 (stereo not drawn)",
    "AC50": "> 10 µM"
  },
  {
    "compound": "CC(CCc1ccc(O)cc1)NCCc1ccc(O)c(O)c1 (stereo not drawn)",
    "AC50": "10.8 µM"
  },
  {
    "compound": "CCN(CC)CCNC(=O)c1c(C)[nH]c(/C=C2\\C(=O)Nc3ccc(F)cc32)c1C",
    "AC50": "9.47 µM"
  },
  {
    "compound": "C=CC[C@@H]1/C=C(\\C)C[C@H](C)C[C@H](OC)[C@H]2O[C@@](O)(C(=O)C(=O)N3CCCC[C@H]3C(=O)O[C@H](/C(C)=C/[C@@H]3CC[C@@H](O)[C@H](OC)C3)[C@H](C)[C@@H](O)CC1=O)[C@H](C)C[C@@H]2OC [TACROLIMUS ANHYDROUS]",
    "AC50": "> 10 µM"
  },
  {
    "compound": "Cc1cc(C(C)(C)C)cc(C)c1CC1=NCCN1",
    "AC50": "0.03 µM"
  },
  {
    "compound": "CO[C@H]1/C=C/O[C@@]2(C)Oc3c(C)c(O)c4c(O)c(c(/C=N/N5CCN(C)CC5)c(O)c4c3C2=O)NC(=O)/C(C)=C\\C=C\\[C@H](C)[C@H](O)[C@@H](C)[C@@H](O)[C@@H](C)[C@H](OC(C)=O)[C@@H]1C",
    "AC50": "> 10 µM"
  },
  {
    "compound": "CCC(=O)O[C@]1(C(=O)SCF)[C@H](C)C[C@H]2[C@@H]3C[C@H](F)C4=CC(=O)C=C[C@]4(C)[C@@]3(F)[C@@H](O)C[C@@]21C [FLUTICASONE PROPIONATE]",
    "AC50": "> 10 µM"
  },
  {
    "compound": "CCCC(CCC)C(=O)O",
    "AC50": "> 10 µM"
  },
  {
    "compound": "[H]/N=C(/N)N/C(=N/[H])NCCc1ccccc1",
    "AC50": "6.71 µM"
  },
  {
    "compound": "CNC1=Nc2ccc(Cl)cc2C(c2ccccc2)=[N+]([O-])C1 [CHLORDIAZEPOXIDE]",
    "AC50": "> 10 µM"
  },
  {
    "compound": "CC(N)C(O)c1ccccc1 (stereo not drawn)",
    "AC50": "> 10 µM"
  },
  {
    "compound": "N[C@@H](CC(=O)N1CCn2c(nnc2C(F)(F)F)C1)Cc1cc(F)c(F)cc1F",
    "AC50": "> 10 µM"
  },
  {
    "compound": "COc1ccccc1Oc1c(NS(=O)(=O)c2ccc(C(C)(C)C)cc2)nc(-c2ncccn2)nc1OCCO",
    "AC50": "> 10 µM"
  },
  {
    "compound": "CN(C)CCc1c[nH]c2ccc(Cn3cncn3)cc12",
    "AC50": "> 10 µM"
  },
  {
    "compound": "CCC[C@H](NC(=O)[C@@H]1[C@H]2CCC[C@H]2CN1C(=O)[C@@H](NC(=O)[C@@H](NC(=O)c1cnccn1)C1CCCCC1)C(C)(C)C)C(=O)C(=O)NC1CC1",
    "AC50": "> 10 µM"
  },
  {
    "compound": "Cn1c(=O)cc(N2CCC[C@@H](N)C2)n(Cc2ccccc2C#N)c1=O",
    "AC50": "> 10 µM"
  },
  {
    "compound": "CCCN(CCC)C(=O)Cc1c(-c2ccc(Cl)cc2)nc2ccc(Cl)cn12",
    "AC50": "> 10 µM"
  },
  {
    "compound": "Cc1ncc2n1-c1ccc(Cl)cc1C(c1ccccc1F)=NC2",
    "AC50": "> 10 µM"
  },
  {
    "compound": "Cc1onc(-c2ccccc2)c1-c1ccc(S(N)(=O)=O)cc1",
    "AC50": "> 10 µM"
  },
  {
    "compound": "COc1ccccc1OCCNCC(O)COc1cccc2[nH]c3ccccc3c12 (stereo not drawn)",
    "AC50": "0.189 µM"
  },
  {
    "compound": "C[C@H]1c2cccc(O)c2C(=O)C2=C(O)[C@]3(O)C(=O)C(C(N)=O)=C(O)[C@@H](N(C)C)[C@@H]3[C@@H](O)[C@@H]21",
    "AC50": "> 10 µM"
  },
  {
    "compound": "OC1(c2ccc(Cl)cc2)c2ccccc2C2=NCCN21 (stereo not drawn)",
    "AC50": "> 10 µM"
  },
  {
    "compound": "Cc1cnc(C(=O)NCCc2ccc(S(=O)(=O)NC(=O)NC3CCCCC3)cc2)cn1 [GLIPIZIDE]",
    "AC50": "> 10 µM"
  },
  {
    "compound": "CCOC(=O)C1=C(C)NC(C)=C(C(=O)OC)C1c1cccc([N+](=O)[O-])c1 (stereo not drawn)",
    "AC50": "> 10 µM"
  },
  {
    "compound": "COc1cc2nc(N3CCN(C(=O)C4CCCO4)CC3)nc(N)c2cc1OC (stereo not drawn)",
    "AC50": "7.27 µM"
  },
  {
    "compound": "COc1ccc(CC2c3cc(OC)c(OC)cc3CC[N+]2(C)CCC(=O)OCCCCCOC(=O)CC[N+]2(C)CCc3cc(OC)c(OC)cc3C2Cc2ccc(OC)c(OC)c2)cc1OC (stereo not drawn)",
    "AC50": "> 30 µM"
  },
  {
    "compound": "CN1CCC(=C2c3ccccc3CCc3cccnc32)CC1",
    "AC50": "> 10 µM"
  }
]

Source: ChEMBL document CHEMBL5291721
